- System: PC-3
- run.description: NCI tumour cell line growth inhibition, 48 h
Active and inactive are the calls of the source. Rule as the data show it: active = GI50 up to about 1.1 µM and inactive = higher.
Reported GI50 values for a set of compounds
assay.endpoint: GI50

- compound: "CC(=O)c1ccc2c(c1)CC1(C2)Cc2cc3c(cc2C1)C(=O)CC3 (configuration not stated)"
  value.measured: "3.13 µM (inactive)"
- compound: "COc1ccc(-c2nc(SC)n(C3OC(COC(C)=O)C(OC(C)=O)C(OC(C)=O)C3OC(C)=O)c(=O)c2C#N)cc1 (configuration not stated)"
  value.measured: "> 100 µM (inactive)"
- compound: "COc1ccc(-c2cc(-c3ccc(Nc4ccnc5cc(C(F)(F)F)ccc45)cc3)[nH]c(=O)c2C#N)cc1"
  value.measured: "> 100 µM (inactive)"
- compound: "Nc1ncnc2c1ncn2C1OC(CO)C(O)C1N (configuration not stated)"
  value.measured: "> 100 µM (inactive)"
- compound: "CC1=CCC2CC1NC(=O)CCOCCC(=O)NC2(C)C (configuration not stated)"
  value.measured: "> 100 µM (inactive)"
- compound: "CC[C@]1(Cc2ccc(OC)c(OC)c2)C=[N+]([O-])O[C@H](OC2CCCC2(c2ccccc2)c2ccccc2)[C@@H]1OC(=O)c1ccccc1 (some centres not stated)"
  value.measured: "5.47 µM (inactive)"
- compound: "COc1ccc(/C(C)=N/NC(=S)N(C)C)c(O)c1"
  value.measured: "6.4 µM (inactive)"
- compound: "C=C1CC(Cn2cc(C)c(=O)[nH]c2=O)(c2ccc(Cl)cc2)OC1=O (configuration not stated)"
  value.measured: "3.08 µM (inactive)"
- compound: "CC1=NN(C(=O)CC(=O)Nc2cccc(C)c2)C(=O)C1/N=N/c1ccc(C(=O)O)cc1 (configuration not stated)"
  value.measured: "> 100 µM (inactive)"
- compound: "CCOc1ccc2nc(NC(=O)C(=O)C(C(=O)c3ccccc3-c3ccccc3)C3OC(=O)c4ccccc43)sc2c1 (configuration not stated)"
  value.measured: "18.2 µM (inactive)"
- compound: "COc1ccc(C(CC(C)=O)c2c(O)c3ccccc3oc2=O)cc1OC (configuration not stated)"
  value.measured: "> 100 µM (inactive)"
- compound: "Nc1nnc2n1C(=O)C(C1(C3=Nc4nnc(N)n4C3=O)Cc3ccccc3C1=O)=N2"
  value.measured: "> 100 µM (inactive)"
